Biological target: hMC5-R (Homo sapiens, UniProt P33032)
Construct: expressed in transfected cells
Sequence (P33032 whole entry): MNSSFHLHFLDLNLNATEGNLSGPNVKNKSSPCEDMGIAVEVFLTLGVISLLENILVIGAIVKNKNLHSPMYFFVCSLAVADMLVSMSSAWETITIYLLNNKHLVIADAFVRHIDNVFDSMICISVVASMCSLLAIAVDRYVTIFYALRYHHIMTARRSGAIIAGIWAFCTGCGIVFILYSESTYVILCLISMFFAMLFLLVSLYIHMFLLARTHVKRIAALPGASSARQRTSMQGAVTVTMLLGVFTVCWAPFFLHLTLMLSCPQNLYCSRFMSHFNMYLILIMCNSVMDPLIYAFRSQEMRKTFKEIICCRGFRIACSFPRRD
Assay: competitive inhibition binding assay, 125I-NDP-alpha-MSH, hMC5-R membranes
Settings: 1 μM test peptide; 0.4 nM 125I-NDP-alpha-MSH; hMC5-R membranes
Square brackets hold non-standard residues; d marks the D form. Ends that are not written are not given here. Nle = CCCC[C@H](N)C(=O)O
measured parameter: % Inhibition at 1 μM at Melanocortin Receptor 5

## Input Provide value of % Inhibition at 1 μM at Melanocortin Receptor 5 for this record tested with hMC5-R (Homo sapiens, UniProt P33032): Ac-Ser-Tyr-Ser-D-Cys-Nle-Glu-His-Phe-Arg-Trp-Gly-Lys-Pro-Val-NH2 (Ac-SYS[dC][Nle]EHFRWGKPV-NH2; not fully specified (bridges); printed as Ac-Ser-Tyr-Ser-D-Cys-Nle-Glu-His-Phe-Arg-Trp-Gly-Lys-Pro-Val-NH2; numbers in words are those of the source; also: oxorhenium(V) N3S1 chelate (Re(V)=O)) [2-11]
## Output 0%

## Input Return % Inhibition at 1 μM at Melanocortin Receptor 5 measured with hMC5-R (Homo sapiens, UniProt P33032) given this substance: Ac-Ser-Tyr-Ser-Nle-Glu-His-Phe-D-Cys-Arg-Trp-Gly-Lys-Pro-Val-NH2 ({Ac-Ser-Tyr-Ser-Nle-Glu-H2N}-F[dC]RWGKPV-NH2; numbers in words are those of the source; also: oxorhenium(V) N3S1 chelate via Cys (Re(V)=O)) [2-7]
## Output 0%

## Input Hi! What's the reported % Inhibition at 1 μM at Melanocortin Receptor 5 for Ac-Ser-Tyr-Ser-Nle-Glu-Cys-His-Phe-Arg-Trp-Gly-Lys-Pro-Val-NH2 (Ac-SYS[Nle]ECHFRWGKPV-NH2; not fully specified (bridges); printed as Ac-Ser-Tyr-Ser-Nle-Glu-Cys-His-Phe-Arg-Trp-Gly-Lys-Pro-Val-NH2; numbers in words are those of the source; also: oxorhenium(V) N3S1 chelate (Re(V)=O)) [1-9] on hMC5-R (Homo sapiens, UniProt P33032)?
## Output 6%

## Input // fetch hMC5-R (Homo sapiens, UniProt P33032) % Inhibition at 1 μM at Melanocortin Receptor 5 for Ac-Ser-Tyr-Cys-Ser-Nle-Glu-His-Phe-Arg-Trp-Gly-Lys-Pro-Val-NH2 (chain 1 Ac-SYCS[Nle]; chain 2 EHFRWGKPV-NH2; not fully specified (bridges); printed as Ac-Ser-Tyr-Cys-Ser-Nle-Glu-His-Phe-Arg-Trp-Gly-Lys-Pro-Val-NH2; also: oxorhenium(V) N3S1 chelate (Re(V)=O)) [1-12]
## Output 19%

## Input Enter reported % Inhibition at 1 μM at Melanocortin Receptor 5 observed with hMC5-R (Homo sapiens, UniProt P33032) for Ac-Ser-Tyr-Ser-Nle-Glu-His-Phe-Arg-Trp-Gly-Lys-Cys-Pro-Val-NH2 (Ac-SYS[Nle]EHFRWGKCPV-NH2; not fully specified (bridges); printed as Ac-Ser-Tyr-Ser-Nle-Glu-His-Phe-Arg-Trp-Gly-Lys-Cys-Pro-Val-NH2; numbers in words are those of the source; also: oxorhenium(V) N3S1 chelate (Re(V)=O)) [1-3]
## Output 12%

## Input // lookup % Inhibition at 1 μM at Melanocortin Receptor 5 | system=hMC5-R (Homo sapiens, UniProt P33032) | key= Ac-Ser-Tyr-Ser-Nle-Glu-His-Phe-Arg-Trp-Gly-Lys-Gly-D-Cys-Val-NH2 (Ac-SYS[Nle]EHFRWGKG[dC]V-NH2; not fully specified (bridges); printed as Ac-Ser-Tyr-Ser-Nle-Glu-His-Phe-Arg-Trp-Gly-Lys-Gly-D-Cys-Val-NH2; numbers in words are those of the source; also: oxorhenium(V) N3S1 chelate (Re(V)=O)) [2-2]
## Output 32%

## Input Form field: % Inhibition at 1 μM at Melanocortin Receptor 5 recorded for Tyr-Val-Nle-Gly-His-D-Phe-Cys-Arg-Trp-Asp-Arg-Phe-NH2 (YV[Nle]GH[dF]CRWDRF-NH2; also: Re complex) [3-6] with hMC5-R (Homo sapiens, UniProt P33032) (enter value)
## Output 31%

## Input Missing value: % Inhibition at 1 μM at Melanocortin Receptor 5, hMC5-R (Homo sapiens, UniProt P33032), entry Tyr-Val-Nle-Gly-His-D-Phe-Cys-Trp-Asp-Arg-Phe-NH2 (YV[Nle]GH[dF]CWDRF-NH2; numbers in words are those of the source; also: oxorhenium(V) N3S1 chelate complex (Re=O)) [5-5] . Fill in?
## Output 28%

## Input Item: Ac-Ser-Tyr-Ser-Nle-Glu-His-Phe-Arg-Cys-Trp-Gly-Lys-Pro-Val-NH2 (Ac-SYS[Nle]EHFRCWGKPV-NH2; not fully specified (bridges); printed as Ac-Ser-Tyr-Ser-Nle-Glu-His-Phe-Arg-Cys-Trp-Gly-Lys-Pro-Val-NH2; numbers in words are those of the source; also: oxorhenium(V) N3S1 chelate (Re(V)=O)) [1-6] Test system: hMC5-R (Homo sapiens, UniProt P33032) Read-out: % Inhibition at 1 μM at Melanocortin Receptor 5 Value: ?
## Output 0%

## Input Query % Inhibition at 1 μM at Melanocortin Receptor 5 on hMC5-R (Homo sapiens, UniProt P33032) for Ac-Ser-Tyr-Ser-Nle-Glu-His-D-Cys-Phe-Arg-Trp-Gly-Lys-Pro-Val-NH2 (CFRWGKPV; Ac-Ser-Tyr-Ser-Nle-Glu-His N-term; D-residue; amide; printed: Cys-Phe-Arg-Trp-Gly-Lys-Pro-Val-) [2-8]
## Output 29%

## Input # returns recorded % Inhibition at 1 μM at Melanocortin Receptor 5 (system: hMC5-R (Homo sapiens, UniProt P33032)) for Tyr-Val-Nle-Gly-His-D-Phe-Arg-Trp-Asp-Arg-Phe-Cys-NH2 (FRWDRFC; Tyr-Val-Nle-Gly-His N-term; D-residue; amide; printed: Phe-Arg-Trp-Asp-Arg-Phe-Cys-) [3-1]
## Output 102%

## Input So what % Inhibition at 1 μM at Melanocortin Receptor 5 did Tyr-Val-Nle-Gly-His-Phe-Cys-Arg-Trp-Asp-Arg-Phe-NH2 (YV[Nle]GHFCRWDRF-NH2; numbers in words are those of the source; also: oxorhenium(V) N3S1 chelate (Re=O) with Cys) [4-6] get with hMC5-R (Homo sapiens, UniProt P33032)?
## Output 24%
